Exercise: for every item that follows, state its recorded DC50.
Target: SMARCA2-HiBiT (Homo sapiens)
Construct: SMARCA2-HiBiT knock-in Hela monoclonal cell (CS302366); host or cells: HeLa monoclonal knock-in line (CRISPR HiBiT knock-in at the endogenous locus, heterozygous)
Sequence (P51531 whole entry): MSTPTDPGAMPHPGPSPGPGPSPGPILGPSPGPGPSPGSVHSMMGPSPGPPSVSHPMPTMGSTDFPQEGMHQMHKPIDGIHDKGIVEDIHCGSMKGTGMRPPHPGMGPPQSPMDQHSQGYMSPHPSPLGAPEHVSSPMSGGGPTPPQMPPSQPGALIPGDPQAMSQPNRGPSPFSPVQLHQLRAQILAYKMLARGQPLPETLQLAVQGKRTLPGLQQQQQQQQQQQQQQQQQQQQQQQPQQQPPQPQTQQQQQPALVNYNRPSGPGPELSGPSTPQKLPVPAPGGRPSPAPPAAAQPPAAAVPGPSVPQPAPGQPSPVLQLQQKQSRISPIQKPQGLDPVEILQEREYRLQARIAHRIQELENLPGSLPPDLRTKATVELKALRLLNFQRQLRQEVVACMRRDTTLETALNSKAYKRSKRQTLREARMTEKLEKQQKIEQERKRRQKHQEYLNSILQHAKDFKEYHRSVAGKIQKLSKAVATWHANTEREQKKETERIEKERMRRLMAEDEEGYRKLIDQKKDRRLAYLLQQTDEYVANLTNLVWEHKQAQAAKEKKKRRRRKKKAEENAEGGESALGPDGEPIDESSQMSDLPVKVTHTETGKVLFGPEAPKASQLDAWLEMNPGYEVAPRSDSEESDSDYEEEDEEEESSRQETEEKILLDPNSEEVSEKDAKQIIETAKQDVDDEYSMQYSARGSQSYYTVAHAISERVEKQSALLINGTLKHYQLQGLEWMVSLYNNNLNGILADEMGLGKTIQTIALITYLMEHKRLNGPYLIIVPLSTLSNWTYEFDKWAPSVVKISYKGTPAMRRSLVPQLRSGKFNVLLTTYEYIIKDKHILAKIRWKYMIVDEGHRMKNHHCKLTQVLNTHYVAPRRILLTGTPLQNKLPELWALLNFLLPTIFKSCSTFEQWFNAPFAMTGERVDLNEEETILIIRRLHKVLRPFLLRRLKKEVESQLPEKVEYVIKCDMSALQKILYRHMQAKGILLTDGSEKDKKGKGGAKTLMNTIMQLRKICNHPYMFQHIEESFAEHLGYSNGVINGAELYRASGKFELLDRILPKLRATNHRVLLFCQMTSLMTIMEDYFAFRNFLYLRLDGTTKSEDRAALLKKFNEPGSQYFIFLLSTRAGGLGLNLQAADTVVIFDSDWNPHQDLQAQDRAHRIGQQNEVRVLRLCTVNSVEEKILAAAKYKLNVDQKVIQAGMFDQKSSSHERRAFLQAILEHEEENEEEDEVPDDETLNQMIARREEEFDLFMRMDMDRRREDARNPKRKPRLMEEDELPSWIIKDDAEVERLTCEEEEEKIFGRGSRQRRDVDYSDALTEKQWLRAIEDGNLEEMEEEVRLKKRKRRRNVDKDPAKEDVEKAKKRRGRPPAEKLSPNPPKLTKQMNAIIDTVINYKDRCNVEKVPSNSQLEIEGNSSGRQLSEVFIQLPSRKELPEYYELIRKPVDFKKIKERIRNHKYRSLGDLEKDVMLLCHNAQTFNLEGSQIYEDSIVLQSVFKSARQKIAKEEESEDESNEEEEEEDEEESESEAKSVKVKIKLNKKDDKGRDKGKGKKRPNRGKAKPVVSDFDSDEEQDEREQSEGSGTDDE
Assay: SMARCA2 HiBiT degradation assay in HeLa cells
Format: cell-based
Settings: 18 hours incubation, read-out: HeLa_HiBit-SM2 DC50

// solved cases for DC50 follow
O=C1CCC(N2C(=O)c3ccc(N4CC[C@H](CN5CCC(CN6CCN7c8cc(-c9ccccc9O)nnc8NC[C@H]7C6)CC5)[C@H](F)C4)cc3C2=O)C(=O)N1 (some centres unmarked) [Example 185] :: < 10 nM
CN(CC1CCN(CC2CCN(c3ccc4c(c3)C(=O)N(C3CCC(=O)NC3=O)C4=O)CC2)CC1)C1CCN2c3cc(-c4ccccc4O)nnc3NCC2C1 (centres unmarked) [Example 254] :: < 10 nM
O=C1CCC(N2Cc3ccc(N4CCC(CN5CCN(C(=O)N6CCN7c8cc(-c9ccccc9O)nnc8NC[C@H]7C6)CC5C(F)(F)F)CC4)cc3C2=O)C(=O)N1 (some centres unmarked) [Example 102] :: < 10 nM
O=C1CCC(N2Cc3cc(N4CCO[C@H](CN5C[C@@H]6[C@H](C5)[C@H]6CN5CCN6c7cc(-c8ccccc8O)nnc7NC[C@H]6C5)C4)ccc3C2=O)C(=O)N1 (some centres unmarked) [Example 268] :: < 10 nM
CC(CN1CCN2c3cc(-c4ccccc4O)nnc3NC[C@H]2C1)C1CCN(CC2CCN(c3ccc4c(c3)C(=O)N(C3CCC(=O)NC3=O)C4=O)CC2)CC1 (some centres unmarked) [Example 249] :: < 10 nM

List DC50 for every entry below, keeping the order given.
1. CC1CN(c2ccc3c(c2)C(=O)N(C2CCC(=O)NC2=O)C3=O)CCC1CN1CCC(CN2CCN3c4cc(-c5ccccc5O)nnc4NC[C@H]3C2)CC1 (some centres unmarked) [Example 170]
2. CC1CC(N2CCN3c4cc(-c5ccccc5O)nnc4NC[C@H]3C2)CCN1CCCC1CCN(c2cccc3c2C(=O)N(C2CCC(=O)NC2=O)C3=O)CC1 (some centres unmarked) [Example 126]
3. CN(CCCCN1CCC(CN2CCN3c4cc(-c5ccccc5O)nnc4NC[C@H]3C2)CC1)c1ccc2c(c1)C(=O)N(C1CCC(=O)NC1=O)C2=O (some centres unmarked) [Example 227]
4. O=C1CCC(N2Cc3cc(N4CCC(CN5C[C@@H]6[C@H](C5)[C@H]6CN5CCN6c7cc(-c8ccccc8O)nnc7NC[C@H]6C5)CC4)ccc3C2=O)C(=O)N1 (some centres unmarked) [Example 92]
5. C[C@H]1CN2c3cc(-c4ccccc4O)nnc3NC[C@H]2CN1C[C@H]1[C@@H]2CN(CC3CCN(c4ccc5c(c4)C(=O)N(C4CCC(=O)NC4=O)C5=O)CC3)C[C@@H]21 (some centres unmarked) [Example 44]
6. O=C1CCC(N2C(=O)c3ccc(N4CCC(CN5CCC(CN6CCN7c8cc(-c9ccccc9O)nnc8NC[C@H]7C6)CC5CO)CC4)cc3C2=O)C(=O)N1 (some centres unmarked) [Example 236]

["< 10 nM", "< 10 nM", "< 10 nM", "< 10 nM", "< 10 nM", "< 10 nM"]

* * *

Target: SMARCA4-HiBiT (Homo sapiens, UniProt P51532)
Construct: SMARCA4-HiBiT knock-in Hela monoclonal cell (CS3023226); host or cells: HeLa monoclonal knock-in line (CRISPR HiBiT knock-in at the endogenous locus, heterozygous)
Sequence (P51532 whole entry): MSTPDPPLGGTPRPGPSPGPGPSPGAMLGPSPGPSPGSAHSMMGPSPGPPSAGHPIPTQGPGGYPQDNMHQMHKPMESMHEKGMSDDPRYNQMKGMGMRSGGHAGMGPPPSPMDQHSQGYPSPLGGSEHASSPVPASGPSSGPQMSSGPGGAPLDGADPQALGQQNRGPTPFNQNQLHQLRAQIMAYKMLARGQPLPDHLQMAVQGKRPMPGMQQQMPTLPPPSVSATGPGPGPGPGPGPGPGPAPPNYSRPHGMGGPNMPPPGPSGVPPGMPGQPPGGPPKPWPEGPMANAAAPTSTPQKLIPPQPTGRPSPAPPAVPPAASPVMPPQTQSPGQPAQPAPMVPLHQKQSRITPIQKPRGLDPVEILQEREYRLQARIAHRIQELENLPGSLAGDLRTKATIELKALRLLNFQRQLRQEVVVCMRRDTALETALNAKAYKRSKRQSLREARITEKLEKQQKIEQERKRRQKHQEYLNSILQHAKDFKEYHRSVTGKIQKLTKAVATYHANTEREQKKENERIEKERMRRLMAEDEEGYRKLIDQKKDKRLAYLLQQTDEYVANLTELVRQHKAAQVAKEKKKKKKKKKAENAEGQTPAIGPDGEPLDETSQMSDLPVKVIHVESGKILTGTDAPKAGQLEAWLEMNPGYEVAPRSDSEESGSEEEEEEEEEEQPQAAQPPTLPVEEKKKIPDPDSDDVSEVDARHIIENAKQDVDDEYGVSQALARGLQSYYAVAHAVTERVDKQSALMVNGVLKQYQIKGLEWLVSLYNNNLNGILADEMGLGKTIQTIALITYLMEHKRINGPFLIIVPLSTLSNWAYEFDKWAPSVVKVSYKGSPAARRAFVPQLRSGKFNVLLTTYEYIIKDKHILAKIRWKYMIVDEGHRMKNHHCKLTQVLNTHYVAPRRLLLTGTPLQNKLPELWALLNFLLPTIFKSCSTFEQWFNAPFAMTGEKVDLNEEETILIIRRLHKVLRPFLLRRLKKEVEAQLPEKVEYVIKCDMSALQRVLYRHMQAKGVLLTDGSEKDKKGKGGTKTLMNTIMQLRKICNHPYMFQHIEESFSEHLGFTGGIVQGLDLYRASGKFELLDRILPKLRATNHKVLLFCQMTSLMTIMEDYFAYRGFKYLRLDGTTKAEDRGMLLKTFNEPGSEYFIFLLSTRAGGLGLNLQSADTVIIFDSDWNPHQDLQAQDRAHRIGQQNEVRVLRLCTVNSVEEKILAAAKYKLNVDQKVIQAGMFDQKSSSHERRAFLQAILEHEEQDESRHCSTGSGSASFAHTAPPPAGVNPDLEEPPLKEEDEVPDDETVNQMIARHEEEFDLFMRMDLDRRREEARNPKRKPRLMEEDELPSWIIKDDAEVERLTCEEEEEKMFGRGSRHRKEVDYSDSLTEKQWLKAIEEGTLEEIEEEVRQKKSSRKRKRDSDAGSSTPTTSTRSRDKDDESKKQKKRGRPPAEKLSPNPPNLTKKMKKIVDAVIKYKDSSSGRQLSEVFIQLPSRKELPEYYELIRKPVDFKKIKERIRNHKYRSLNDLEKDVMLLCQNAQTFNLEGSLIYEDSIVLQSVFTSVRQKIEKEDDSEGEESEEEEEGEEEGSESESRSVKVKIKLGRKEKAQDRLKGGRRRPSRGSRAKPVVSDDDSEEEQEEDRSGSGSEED
Assay: SMARCA4 HiBiT degradation assay in HeLa cells
Format: cell-based
Conditions: HeLa, 18 hours incubation, read-out: HeLa-HiBit-SM4 Dmax (%)
Field: Dmax. Provide a value for each of the compounds that follow.

# batch: return Dmax for each of the 2 compounds below
1. C[C@@H]1C[C@H](CN2C[C@@H]3[C@H](C2)[C@H]3CN2CCN3c4cc(-c5ccccc5O)nnc4NC[C@H]3C2)CCN1c1cc2c(cc1F)C(=O)N(C1CCC(=O)NC1=O)C2=O (stereo partly drawn) [Example 176]
2. O=C1CCC(N2C(=O)c3ccc(N4CCC(CN5C[C@H]6C[C@H](CN7CCN8c9cc(-c%10ccccc%10O)nnc9NC[C@H]8C7)C[C@H]6C5)CC4)cc3C2=O)C(=O)N1 (stereo partly drawn) [Example 45]

50 to 75%
> 85%
